Recorded viability at 1 µM values for a group of compounds are listed next.
System: non-senescent control IMR90 ER:RAS cells
procedure_summary: Nuclei count (Hoechst, high content imaging) senolytic assay, OIS model, non-senescent control cells
Type: cell-based, human
assay_conditions: Homo sapiens, IMR-90, 72 h, Control, log (dose) [M] -6, 72 h, mean n=3 (Fig 3C); read-out: Mean % Cell Survival
test_readout: viability at 1 µM (%)

# compound, readout_unit, meas_value
records = [
    ("O=c1c(O)c(-c2ccc(O)cc2O)oc2cc(O)cc(O)c12 [Morin, morin]", "%", 81.3),
    ("COc1cc(O)c2c(=O)cc(-c3ccc(OC)c(-c4c(O)cc(O)c5c(=O)cc(-c6ccc(O)cc6)oc45)c3)oc2c1 [Ginkgetin, ginkgetin]", "%", 87.1),
    ("O=c1cc(-c2ccc(O)cc2)oc2cc(O)c(O)c(O)c12 [Scutellarein, scutellarein]", "%", 88.2),
    ("CO[C@H]1C[C@@H]2CC[C@@H](C)[C@@](O)(O2)C(=O)C(=O)N2CCCC[C@H]2C(=O)O[C@H]([C@H](C)C[C@@H]2CC[C@@H](OCCO)[C@H](OC)C2)CC(=O)[C@H](C)/C=C(\\C)[C@@H](O)[C@@H](OC)C(=O)[C@H](C)C[C@H](C)/C=C/C=C/C=C/1C [Everolimus, everolimus, reference compound]", "%", 104),
    ("CO[C@H]1C[C@@H]2CC[C@@H](C)[C@@](O)(O2)C(=O)C(=O)N2CCCC[C@H]2C(=O)O[C@H]([C@H](C)C[C@@H]2CC[C@@H](O)[C@H](OC)C2)CC(=O)[C@H](C)/C=C(\\C)[C@@H](O)[C@@H](OC)C(=O)[C@H](C)C[C@H](C)/C=C/C=C/C=C/1C [Rapamycin, rapamycin, reference compound]", "%", 83.1),
    ("Cc1c(-c2c(F)cc(C(N)=O)c3[nH]c4c(c23)CC[C@H](C(C)(C)O)C4)cccc1-n1c(=O)c2cccc(F)c2n(C)c1=O [BMS 986142]", "%", 115),
    ("CO[C@H]1C[C@H](O[C@H]2CC[C@@]3(C)[C@H](CC[C@@H]4[C@@H]3CC[C@]3(C)[C@@H](C5=CC(=O)OC5)[C@@H](OC(C)=O)C[C@]43O)C2)O[C@@H](C)[C@@H]1O [Oleandrin, oleandrin]", "%", 25.6),
    ("COc1cc(/C=C/C(=O)O[C@H]2CC[C@]34C[C@]35CC[C@]3(C)[C@@H]([C@H](C)CCC=C(C)C)CC[C@@]3(C)[C@@H]5CC[C@H]4C2(C)C)ccc1O [Gamma oryzanol, gamma oryzanol]", "%", 86.2),
]

###

Test system: non-senescent control A549 cells
procedure_summary: Nuclei count senolytic assay, TIS model, non-senescent control cells
Type: cell-based, human
assay_conditions: Homo sapiens, A549; log (dose) [M] -6.66; Control cells; mean; read-out: Mean % Cell Survival

# compound, readout_unit, viability at 0.219 µM
measured = [
    ("Cc1cnc(C(=O)N[C@H]2CCCCC/C=C\\[C@@H]3C[C@@]3(C(=O)NS(=O)(=O)C3CC3)NC(=O)[C@@H]3C[C@@H](Oc4nc5ccccc5c5ccccc45)CN3C2=O)cn1 [Paritaprevir, paritaprevir, reference compound]", "%", 97.7),
    ("CO[C@H]1C[C@@H]2CC[C@@H](C)[C@@](O)(O2)C(=O)C(=O)N2CCCC[C@H]2C(=O)O[C@H]([C@H](C)C[C@@H]2CC[C@@H](OP(C)(C)=O)[C@H](OC)C2)CC(=O)[C@H](C)/C=C(\\C)[C@@H](O)[C@@H](OC)C(=O)[C@H](C)C[C@H](C)/C=C/C=C/C=C/1C [Ridaforolimus, ridaforolimus, reference compound]", "%", 102),
]
